- measurement notes: INCB001158 plasma pharmacokinetics (LC-MS/MS, noncompartmental analysis)
- Type: in vivo, Japanese patients
- measurement conditions: human, plasma, oral, 100 mg, first dose, 100 mg BID monotherapy; read-out: INCB001158 geometric mean Cmax
property measured: Cmax (ng/mL)
Report as a plain number; the unit ng/mL is understood.

-- ask Name the recorded Cmax for C[C@H](N)C(=O)N1C[C@H](CCCB(O)O)[C@](N)(C(=O)O)C1 [INCB001158] .
-- reply 1740

* * *

- measurement notes: INCB001158 plasma pharmacokinetics (LC-MS/MS, noncompartmental analysis)
- Assay type: in vivo, Japanese patients
- measurement conditions: human, plasma, po, 100 mg, steady-state, 100 mg BID oral; monotherapy: two individual values (n = 2); combination n = 5 mean ± SD (geometric mean); read-out: INCB001158 Vz/F
property measured: Vd/F (L)
State the answer as a number, implicitly in L.

-- ask // Vd/F lookup, key: C[C@H](N)C(=O)N1C[C@H](CCCB(O)O)[C@](N)(C(=O)O)C1 [INCB001158]
-- reply 44.9

* * *

- measurement notes: INCB001158 plasma pharmacokinetics (LC-MS/MS, noncompartmental analysis)
- Format: in vivo, Japanese patients
- measurement conditions: human, plasma, po, 100 mg, steady-state, 100 mg BID oral; monotherapy n = 3, combination n = 5; median (min, max); read-out: INCB001158 tmax
property measured: Tmax (h)
Provide the reading as a plain figure in h.

-- ask What does the record list as Tmax for "C[C@H](N)C(=O)N1C[C@H](CCCB(O)O)[C@](N)(C(=O)O)C1" ?
-- reply 3.8

* * *

- measurement notes: INCB001158 plasma pharmacokinetics (LC-MS/MS, noncompartmental analysis)
- Format: in vivo, Japanese patients
- measurement conditions: human, plasma, po, 100 mg, steady-state, 100 mg BID oral; monotherapy: two individual values (n = 2); combination n = 5 mean ± SD (geometric mean); read-out: INCB001158 t½ (converted)
property measured: half-life (h)
Write the value in h as a bare number.

-- ask # query: half-life of entry "C[C@H](N)C(=O)N1C[C@H](CCCB(O)O)[C@](N)(C(=O)O)C1"
-- reply 6.25

* * *

- measurement notes: INCB001158 plasma pharmacokinetics (LC-MS/MS, noncompartmental analysis)
- Assay type: in vivo, Japanese patients
- measurement conditions: human, plasma, oral, 100 mg, steady‐state, 100‐mg BID monotherapy; read-out: INCB001158 geometric mean AUCtau
property measured: AUC (ng·h/mL)
API: value field is a number in ng·h/mL; no unit string.

-- ask Any idea what AUC was measured for "C[C@H](N)C(=O)N1C[C@H](CCCB(O)O)[C@](N)(C(=O)O)C1" ?
-- reply 23200

* * *

- measurement notes: INCB001158 plasma pharmacokinetics (LC-MS/MS, noncompartmental analysis)
- Type: in vivo, Japanese patients
- measurement conditions: human, plasma, po, 100 mg, first dose, 100 mg BID oral; monotherapy n = 3, combination n = 6; median (min, max); read-out: INCB001158 tmax
property measured: Tmax (h)
Provide the reading as a plain figure in h.

-- ask What does the record list as Tmax for C[C@H](N)C(=O)N1C[C@H](CCCB(O)O)[C@](N)(C(=O)O)C1 [INCB001158] ?
-- reply 3.9
